test system: P388 leukemia ip, CD2F1 mice, survival T/C; test: NCI In Vivo Anticancer Drug Screen. Data for tumor model P388 Leukemia (intraperitoneal) in CD2F1 (CDF1) mice; details: endpoint: median survival time; dose: 50.0 mg/kg/injection; schedule: Q01DX009 (ip); vehicle: Klucel (hydroxypropylcellulose) (HPC); higher = longer survival
Toxic doses and inconclusive results are not listed.
Exercise: state measured T/C for each of the molecules provided.

(Q) Which T/C is reported with P388 leukemia ip, CD2F1 mice, survival T/C for this entry: O=C1C(=C2C=CN(CCCN3CCCCC3)C=C2)C(=O)c2ccccc21 ?
(A) 91 % of control

(Q) Which T/C is reported with P388 leukemia ip, CD2F1 mice, survival T/C for this entry: O=C(/C=C/c1cccc(Cl)c1)c1ccccc1 ?
(A) 102 % of control

(Q) Which T/C is reported with P388 leukemia ip, CD2F1 mice, survival T/C for this entry: CCOC(=O)c1c(C)c2c(n1C)CCc1cn[nH]c1-2 ?
(A) 105 % of control

(Q) Which T/C is reported with P388 leukemia ip, CD2F1 mice, survival T/C for this entry: CCOC(=O)NC(=S)C1=C(N2CCOCC2)CCC1 ?
(A) 106 % of control

(Q) Which T/C is reported with P388 leukemia ip, CD2F1 mice, survival T/C for this entry: Nc1[nH]c(=O)[nH]c(=O)c1S(=O)(=O)O ?
(A) 95 % of control

(Q) Which T/C is reported with P388 leukemia ip, CD2F1 mice, survival T/C for this entry: CCCCCCCCCCCCCCCCCCN(CCCCCCCCCCCCCCCCCC)c1ccc(/C=C/c2ccnc3ccccc23)cc1 ?
(A) 95 % of control

---

system: P388 leukemia ip, CD2F1 mice, survival T/C; experiment: NCI In Vivo Anticancer Drug Screen. Data for tumor model P388 Leukemia (intraperitoneal) in CD2F1 (CDF1) mice; details: endpoint: median survival time; dose: 50.0 mg/kg/injection; schedule: Q01DX009 (ip); vehicle: other; higher = longer survival
Inconclusive results and toxic doses are left out.
Exercise: state measured T/C for each of the compounds provided.

(Q) For CC(C)(C)OC(=O)NN(CC(=O)OCc1ccccc1)N=O , what is its reported T/C?
(A) 97 % of control

(Q) For O=[N+]([O-])c1ccc2[nH]c3cnccc3c2c1 , what is its reported T/C?
(A) 108 % of control

(Q) For Cn1ccc(=Nc2ccc(NC(=O)c3ccc(N=c4ccn(C)c5ccc([N+](=O)[O-])cc45)cc3)cc2)cc1 , what is its reported T/C?
(A) 168 % of control

(Q) For COc1cc(Br)cc(C(=O)N2CCc3ccccc32)c1OC , what is its reported T/C?
(A) 96 % of control

(Q) For [Cl][Pt+2][Cl].[NH-]C1CCCCCCC1.[NH-]C1CCCCCCC1 , what is its reported T/C?
(A) 101 % of control

(Q) For NC(=O)Oc1cccc(OC(N)=O)c1 , what is its reported T/C?
(A) 111 % of control

(Q) For O=[N+](N=c1ccn([O-])cc1)c1cc[n+]([O-])cc1 , what is its reported T/C?
(A) 109 % of control

(Q) For COc1ccc(C(OCC2CC3CCC2C3)OCC2CC3CCC2C3)cc1 (stereo not drawn) , what is its reported T/C?
(A) 110 % of control

---

system: P388 leukemia ip, CD2F1 mice, survival T/C; experiment: NCI In Vivo Anticancer Drug Screen. Data for tumor model P388 Leukemia (intraperitoneal) in CD2F1 (CDF1) mice; conditions: endpoint: median survival time; dose: 25.0 mg/kg/injection; schedule: Q01DX009 (ip); vehicle: saline
Toxic doses and inconclusive results are not listed. The calls were made as follows: active = survival T/C of 150% or more; inactive = T/C below 125% in these data.
Hello, when you answer, please use one of the following outcomes: active, inactive

(Q) Give the logged outcome of this assay for the following molecule: Cc1noc(N)c1C
(A) inactive

(Q) Give the logged outcome of this assay for the following molecule: O=c1cncc[nH]1
(A) inactive

(Q) Give the logged outcome of this assay for the following molecule: CCCCNP(=O)(N1CC1C)N1CC1C (stereo not given)
(A) inactive

(Q) Give the logged outcome of this assay for the following molecule: COc1ccc2c(c1)CCC1C2=CCP1(C)=O (stereo not given)
(A) inactive

(Q) Give the logged outcome of this assay for the following molecule: COc1ccc(C#N)cc1OC
(A) inactive

(Q) Give the logged outcome of this assay for the following molecule: CCCCCCCCCCC[CH2][Sn]([CH3])([CH3])[O]C(C)=O
(A) inactive

(Q) Give the logged outcome of this assay for the following molecule: CC([NH-])C(=O)O.[Cu+2].[NH-]C(Cc1cnc[nH]1)C(=O)O (stereo not given)
(A) inactive

(Q) Give the logged outcome of this assay for the following molecule: COc1cc(N(CCCl)CCCl)c(OC)cc1C=Nc1ccccc1C(=O)O
(A) active

(Q) Give the logged outcome of this assay for the following molecule: COC(=O)C(CNc1ccc(S(N)(=O)=O)cc1)=[N+]=[N-]
(A) inactive

(Q) Give the logged outcome of this assay for the following molecule: O=S1(=O)OC2(c3ccccc31)c1cc(Br)c(O)c(O)c1Oc1c2cc(Br)c(O)c1O
(A) inactive

(Q) Give the logged outcome of this assay for the following molecule: N.N.N.N.N.N.[Cl-].[Pt]
(A) inactive

(Q) Give the logged outcome of this assay for the following molecule: Oc1ccc(CCl)c2cccnc12
(A) inactive

(Q) Give the logged outcome of this assay for the following molecule: FC(F)(F)c1ccccc1NC(=S)SCc1ccc2c(c1)OCO2
(A) inactive

(Q) Give the logged outcome of this assay for the following molecule: C/C=C/C=C\C(=O)O
(A) inactive

(Q) Give the logged outcome of this assay for the following molecule: COC(=O)Nc1cccc(-c2nc3ccc(NC(=O)OC)cc3c(=O)n2-c2ccccc2)c1
(A) inactive

---

tested on: P388 leukemia ip, CD2F1 mice, survival T/C; experiment: NCI In Vivo Anticancer Drug Screen. Data for tumor model P388 Leukemia (intraperitoneal) in CD2F1 (CDF1) mice; settings: endpoint: median survival time; dose: 100.0 mg/kg/injection; schedule: Q01DX009 (ip); vehicle: saline with Tween-80; higher = longer survival
Toxic doses and inconclusive results are not listed.
Exercise: state measured T/C for each of the compounds provided.

(Q) Which T/C is reported with P388 leukemia ip, CD2F1 mice, survival T/C for this entry: c1ccc2c(c1)CC1ON3CCc4ccccc4C3C21 (configuration not stated) ?
(A) 94 % of control

(Q) Which T/C is reported with P388 leukemia ip, CD2F1 mice, survival T/C for this entry: Cc1ccc2c(=O)n(C)c(=O)n(C)c2n1 ?
(A) 103 % of control

(Q) Which T/C is reported with P388 leukemia ip, CD2F1 mice, survival T/C for this entry: CC(=O)OC1CC2CCC1(/C=C/C(=O)c1ccccc1)C2 (configuration not stated) ?
(A) 100 % of control

(Q) Which T/C is reported with P388 leukemia ip, CD2F1 mice, survival T/C for this entry: CC(=O)n1ccc(=O)[nH]c1=O ?
(A) 96 % of control

(Q) Which T/C is reported with P388 leukemia ip, CD2F1 mice, survival T/C for this entry: CN(C)Sc1ccc(Cl)cc1[N+](=O)[O-] ?
(A) 100 % of control

(Q) Which T/C is reported with P388 leukemia ip, CD2F1 mice, survival T/C for this entry: CC(C)(C)OC(=O)NCC(=O)ON1C(=O)CCC1=O ?
(A) 102 % of control

(Q) Which T/C is reported with P388 leukemia ip, CD2F1 mice, survival T/C for this entry: CCOC(=O)c1cc(NC(C)=O)cn1C ?
(A) 104 % of control

(Q) Which T/C is reported with P388 leukemia ip, CD2F1 mice, survival T/C for this entry: Cc1ccc(NCCN(C)C)c2c(=O)c3ccc(O)cc3sc12 ?
(A) 110 % of control

(Q) Which T/C is reported with P388 leukemia ip, CD2F1 mice, survival T/C for this entry: C=C(C)CC1CN2CCc3cc(OC)c(OC)cc3C2CC1=O (configuration not stated) ?
(A) 116 % of control

(Q) Which T/C is reported with P388 leukemia ip, CD2F1 mice, survival T/C for this entry: CCOCC1COc2c(cc3[nH]cc(C(=O)O)c(=O)c3c2Cl)O1 (configuration not stated) ?
(A) 93 % of control

(Q) Which T/C is reported with P388 leukemia ip, CD2F1 mice, survival T/C for this entry: CCOC(=O)c1ccc(NCc2ccc(CNc3ccc(C(=O)OCC)cc3)cc2)cc1 ?
(A) 89 % of control

(Q) Which T/C is reported with P388 leukemia ip, CD2F1 mice, survival T/C for this entry: CCOC(=O)C(=CN(C)c1ccc(C)cc1)C(=O)OCC ?
(A) 103 % of control

---

Exercise: state measured T/C for each of the molecules provided.
test system: P388 leukemia ip, CD2F1 mice, survival T/C; test: NCI In Vivo Anticancer Drug Screen. Data for tumor model P388 Leukemia (intraperitoneal) in CD2F1 (CDF1) mice; settings: endpoint: median survival time; dose: 100.0 mg/kg/injection; schedule: Q04DX003 (ip); vehicle: saline with Tween-80; higher = longer survival
Toxic doses and inconclusive results are not listed.

(Q) For C[C@H]1C[C@@H]2[C@H]([C@@H](O)C[C@@]3(C)[C@H]2CC[C@]3(O)C(=O)CF)[C@@]2(C)C=CC(=O)C=C12 , what is its reported T/C?
(A) 100 % of control

(Q) For CCCCCCC([Se]C)C(O)(CCC)CCC (stereo not given) , what is its reported T/C?
(A) 91 % of control

(Q) For CCOC(=O)Nc1cc(Cl)ccc1O , what is its reported T/C?
(A) 90 % of control

(Q) For Cc1nc(C(N)=O)c(=O)[nH]c1C , what is its reported T/C?
(A) 100 % of control

(Q) For c1ccc(NC2=NCCO2)nc1 , what is its reported T/C?
(A) 95 % of control

(Q) For CO[C@H]1/C=C/O[C@@]2(C)Oc3c(C)c(O)c4c(O)c(c(/C=N/N5CCNCC5)c(O)c4c3C2=O)NC(=O)/C(C)=C\C=C\[C@H](C)[C@H](O)[C@@H](C)[C@@H](O)[C@@H](C)C(OC(C)=O)[C@@H]1C (stereo not given in full) , what is its reported T/C?
(A) 91 % of control

(Q) For CC1CCC(n2cnc3c(=S)nc[nH]c32)O1 (stereo not given) , what is its reported T/C?
(A) 109 % of control

(Q) For CCOc1ccc(/C=N/Nc2ccc([N+](=O)[O-])cc2)cc1OC , what is its reported T/C?
(A) 95 % of control

(Q) For CC(C)C1=CC2=CCC3C(C)(C(N)=O)CCCC3(C)C2CC1CC#N (stereo not given) , what is its reported T/C?
(A) 95 % of control

(Q) For CCOC(=O)[C@]12CCC[C@@]1(O)NC(=O)c1cnccc12 , what is its reported T/C?
(A) 100 % of control

(Q) For Cc1ccc(S(=O)(=O)Nc2ccc3ncccc3c2)cc1 , what is its reported T/C?
(A) 99 % of control

(Q) For Cc1ccc(N=C(N)NC#N)cc1 , what is its reported T/C?
(A) 91 % of control

(Q) For c1ccc(-c2n[nH]c3ccccc23)cc1 , what is its reported T/C?
(A) 101 % of control

(Q) For BrC1C2CCC3OC3CCC12 (stereo not given) , what is its reported T/C?
(A) 101 % of control

(Q) For c1ccc2sc(SN3CCOCC3)nc2c1 , what is its reported T/C?
(A) 87 % of control

(Q) For Cc1ccc(N2CCN(CCCC3(c4ccccc4)OCCO3)CC2C)cc1Cl (stereo not given) , what is its reported T/C?
(A) 107 % of control

(Q) For CC1(C)C(C)(C)C1(Cl)S(C)(=O)=O , what is its reported T/C?
(A) 101 % of control

(Q) For CS/C(=N\N=C(/C)c1ccccn1)N1CCN(c2ccccn2)CC1 , what is its reported T/C?
(A) 98 % of control

(Q) For O=NN1CCN(N=O)CC1 , what is its reported T/C?
(A) 104 % of control

(Q) For O/N=C\c1ccc(/C=N/O)cc1 , what is its reported T/C?
(A) 100 % of control

(Q) For CC(=O)n1ccc(=O)[nH]c1=O , what is its reported T/C?
(A) 100 % of control

(Q) For CCCCCn1c(Cl)c(/C=N\Nc2cccc([N+](=O)[O-])c2)c2ccccc21 , what is its reported T/C?
(A) 100 % of control

(Q) For C(=Nc1cnc2ccccc2c1)c1ccnc2ccccc12 , what is its reported T/C?
(A) 99 % of control

(Q) For OCC1OC(n2cnc3c(SCc4ccccn4)ncnc32)C(O)C1O (stereo not given) , what is its reported T/C?
(A) 96 % of control

(Q) For COC(=O)C(NC(N)=O)SC (stereo not given) , what is its reported T/C?
(A) 100 % of control

meta.source: PubChem BioAssay AID330
